- CONDITION_PARAMETERS: 288.15 K; 101 kPa; Liquid; Vibrating tube method
Numbers after ± are expanded uncertainties.
EXPERIMENTAL_READOUT: mass density

Recorded result, `CCO` , mass density: 794.4 ± 1 kg/m3

Recorded result, CCCCCCOS(=O)(=O)[O-].CC[n+]1ccn(C)c1 [3-ethyl-1-methyl-1H-imidazolium hexyl sulfate] , mass density: 1136.6 ± 1.4 kg/m3

Recorded result, CCOS(=O)(=O)[O-].CCn1cc[n+](C)c1 [1-ethyl-3-methylimidazolium ethyl sulfate] , mass density: 1245.3 ± 1.6 kg/m3

Recorded result, CCCCOS(=O)(=O)[O-].CC[n+]1ccn(C)c1 [3-ethyl-1-methylimidazolium butyl sulfate] , mass density: 1182.5 ± 1.1 kg/m3

Recorded result, CCCCCCCCOS(=O)(=O)[O-].CCn1cc[n+](C)c1 [1-ethyl-3-methylimidazolium octyl sulfate] , mass density: 1100.7 ± 1 kg/m3

* * *

Give measured mass density for each item. Keep answers brief.
- CONDITION_PARAMETERS: 308.15 K; 101 kPa; Liquid; Vibrating tube method
Entry rule: numbers only, all in kg/m3.

Recorded result, CCOS(=O)(=O)[O-].CCn1cc[n+](C)c1 [1-ethyl-3-methylimidazolium ethyl sulfate] , mass density: 1231.6

Recorded result, CCCCOS(=O)(=O)[O-].CC[n+]1ccn(C)c1 [3-ethyl-1-methylimidazolium butyl sulfate] , mass density: 1169

Recorded result, `CCO` , mass density: 777.1

Recorded result, CCCCCCCCOS(=O)(=O)[O-].CCn1cc[n+](C)c1 [1-ethyl-3-methylimidazolium octyl sulfate] , mass density: 1087

Recorded result, CCCCCCOS(=O)(=O)[O-].CC[n+]1ccn(C)c1 [3-ethyl-1-methyl-1H-imidazolium hexyl sulfate] , mass density: 1123.1

* * *

- CONDITION_PARAMETERS: 318.15 K; 101 kPa; Liquid; Vibrating tube method
I would appreciate it if you labelled entries condition met when mass density is 1000 kg/m3 or higher, otherwise condition not met.

query: // inclusive: mass density at least 1000 kg/m3? input: CCCCCCOS(=O)(=O)[O-].CC[n+]1ccn(C)c1 [3-ethyl-1-methyl-1H-imidazolium hexyl sulfate]
result: condition met

query: // inclusive: mass density at least 1000 kg/m3? input: CCOS(=O)(=O)[O-].CCn1cc[n+](C)c1 [1-ethyl-3-methylimidazolium ethyl sulfate]
result: condition met

query: // inclusive: mass density at least 1000 kg/m3? input: CCO [ethanol]
result: condition not met

query: // inclusive: mass density at least 1000 kg/m3? input: CCCCCCCCOS(=O)(=O)[O-].CCn1cc[n+](C)c1 [1-ethyl-3-methylimidazolium octyl sulfate]
result: condition met

query: // inclusive: mass density at least 1000 kg/m3? input: CCCCOS(=O)(=O)[O-].CC[n+]1ccn(C)c1 [3-ethyl-1-methylimidazolium butyl sulfate]
result: condition met

* * *

- CONDITION_PARAMETERS: 298.15 K; 101 kPa; Liquid; Vibrating tube method
EXPERIMENTAL_READOUT: mass density (kg/m3)
Entry rule: numbers only, all in kg/m3.

Recorded result, CCCCOS(=O)(=O)[O-].CC[n+]1ccn(C)c1 [3-ethyl-1-methylimidazolium butyl sulfate] , mass density: 1175.7

Recorded result, CCOS(=O)(=O)[O-].CCn1cc[n+](C)c1 [1-ethyl-3-methylimidazolium ethyl sulfate] , mass density: 1238.3

Recorded result, CCCCCCCCOS(=O)(=O)[O-].CCn1cc[n+](C)c1 [1-ethyl-3-methylimidazolium octyl sulfate] , mass density: 1093.8

Recorded result, `CCO` , mass density: 785.8

Recorded result, CCCCCCOS(=O)(=O)[O-].CC[n+]1ccn(C)c1 [3-ethyl-1-methyl-1H-imidazolium hexyl sulfate] , mass density: 1129.6

Data provenance: the NIST ThermoML archive (doi:10.1021/je2012633)
